Each entry below lists one item and its recorded protein stability index value.
B1: DULLARD (parent)
chain: LVVFTASMEIYGSAVADKLDNSRS

variants of: B1; test: protein stability index of a GFP-peptide fusion (GPS, HEK-293T) (PSI 1-6); higher = more stable; details: c terminus: a fixed tail appended;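 further: lentivirally expressed fusions sorted by FACS into six bins by GFP to DsRed ratio, PSI derived from sequencing read proportions per bin multiplied by bin number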

Dear colleague, I am looking for the recorded protein stability index of the following variant: L19I 1.62

Dear colleague, I am looking for the recorded protein stability index of the following variant: K18V 2.79

Dear colleague, I am looking for the recorded protein stability index of the following variant: E9P 3.01

Dear colleague, I am looking for the recorded protein stability index of the following variant: S7P 1.93

Dear colleague, I am looking for the recorded protein stability index of the following variant: A16H 3.11

Dear colleague, I am looking for the recorded protein stability index of the following variant: L1G 2.31

Dear colleague, I am looking for the recorded protein stability index of the following variant: S22K 2.58
